// provenance: the METLIN SMRT retention time set (Domingo-Almenara et al. 2019)

# TEST_METHOD_NOTES: gradient 5% acetonitrile 3 min, to 50% in 2 min, to 85% in 15 min, held 3 min, 100 µL/min
# CONDITION: column: Zorbax Extend-C18 2.1 x 50 mm; eluents: water / acetonitrile, 0.1% formic acid
Output t for records whose RP-LC retention time is lower than 800 s, f for records at or above 800 s.

[Q] Please indicate whether the reported RP-LC retention time of Cc1sc(NC(=O)C(C)(C)C)nc1-c1ccc2c(c1)NC(=O)CO2 is strictly below 800 s.
[A] f

[Q] RP-LC retention time strictly < 800 s for this compound? CC1Oc2ccc(NC(=O)C3CCCC3)cc2CN(Cc2ccccc2F)C1=O (centres undefined)
[A] f

[Q] Please check: RP-LC retention time for COCCN(CC1(C)CCOCC1)C(=O)NCc1cccc(F)c1 , strictly under 800 s or not?
[A] t

[Q] RP-LC retention time under 800 s? Item: CNC(=O)c1nc(C(C)(C)NC(=O)c2ccoc2)nc2c1OCO2
[A] t

[Q] Here's an entry: COC(=O)CSc1nnc2c(S(=O)(=O)N3CCN(c4ccc(F)cc4)CC3)cccn12 . Is its RP-LC retention time below 800 s?
[A] f

[Q] Is RP-LC retention time of CC(=O)N1CCc2cc(N3CC(C(=O)Nc4cccc(Cl)c4)CC3=O)ccc21 (centres undefined) strictly below 800 s?
[A] t

[Q] Quick check: does CC(=O)N1CCC2(CC1)OC(=O)C(C)=C2C(=O)NCCCN1CC(C)CC(C)C1 (centres undefined) have RP-LC retention time under 800 s?
[A] t

[Q] Please check: RP-LC retention time for Cc1ccc(-c2nnc(-c3nn(C)c4c3CN(S(=O)(=O)c3c(C)cc(C)cc3C)CC4)o2)cc1 , strictly under 800 s or not?
[A] f

[Q] I wonder whether CN(Cc1ccccc1)C(=O)CN1C(=O)C2CCCCN2c2ccc(S(=O)(=O)N3CCCC3)cc21 (centres undefined) has RP-LC retention time below 800 s. Can you tell?
[A] f

[Q] I wonder whether Fc1ccc(-c2csc(Nc3cccnc3)n2)cc1 has RP-LC retention time below 800 s. Can you tell?
[A] t

[Q] Decide: RP-LC retention time of CN(C)CCCNc1cc(N2CCOCC2)c2noc3c2c1C(=O)c1ccccc1-3 strictly below 800 s?
[A] t

[Q] Input COc1cc(NC(=O)N2CCCC2c2ccccc2C)cc(OC)c1OC (centres undefined) ; condition: RP-LC retention time strictly below 800 s. Does it hold?
[A] f

[Q] Record CCc1noc(C2(NC(=O)c3ccc(C#N)cc3)CCCCC2)n1 : is its RP-LC retention time strictly below 800 s?
[A] f

[Q] Problem: For the compound Cc1nc2cccnc2n1C1CCN(C(=O)Nc2ccc3c(c2)OCCO3)C1 (centres undefined) , is RP-LC retention time under 800 s?
[A] t

[Q] Dear reviewer, please state whether CCn1cc(S(=O)(=O)Nc2cccc(C)c2C)c2cccnc21 has RP-LC retention time strictly beneath 800 s.
[A] f

[Q] Consider O=C(Nc1ccc(-n2cnc(C(=O)N3CCc4ccccc4C3)c2)nc1)C1CC1 . Does its RP-LC retention time lie strictly below 800 s?
[A] t

[Q] Just wondering, is RP-LC retention time of COC[C@@H]1OCCN(S(=O)(=O)c2cccc(OC)c2)[C@H]1c1ccccc1 below 800 s?
[A] f

[Q] Confirm or reject: RP-LC retention time of COc1ccc(Nc2nc(C(=O)Nc3ccc4c(c3)OCCO4)cs2)c(OC)c1 lies strictly below 800 s
[A] f

[Q] In plain terms, does COC(=O)c1ccc(C(=O)OC)c(NC(=O)CSc2nc(C)cc(C)n2)c1 come in under 800 s for RP-LC retention time?
[A] f

[Q] Dear reviewer, please state whether CC1CCN(S(=O)(=O)c2ccc3c(c2)CCCC(=O)N3CC(=O)N2CCc3ccccc3C2)CC1 has RP-LC retention time strictly beneath 800 s.
[A] f

[Q] I'd appreciate it if you could check whether O=C(Nc1ccc(OCc2nnc(-c3ccccc3)o2)cc1)C1CCCC1 has RP-LC retention time smaller than 800 s.
[A] f

[Q] I'd appreciate it if you could check whether COc1ccc2[nH]c3c(c2c1)CCNC3c1ccc(F)cc1 (centres undefined) has RP-LC retention time smaller than 800 s.
[A] t

[Q] Is RP-LC retention time of CCCCN(CC)c1nc(-c2ccc([N+](=O)[O-])cc2)nc2ccccc12 strictly below 800 s?
[A] f

[Q] State whether 800 s exceeds RP-LC retention time recorded for COc1ccc(-c2nnc(CC(=O)NCC3CCCO3)o2)cc1 (centres undefined) .
[A] t

[Q] For this compound, is RP-LC retention time lower than 800 s? NC(=O)Cc1cccc(C(=O)c2ccccc2)c1N
[A] t

[Q] Take the compound O=C(Nc1cnc(N2CCOCC2)c(C(=O)O)c1)c1ccc(Br)cc1 and say whether its RP-LC retention time is less than 800 s.
[A] t

[Q] Is RP-LC retention time of COC(=O)c1cc(S(=O)(=O)N2CCN(c3cccc(C)c3)C(C)C2)c(C)n1C (centres undefined) strictly below 800 s?
[A] f

[Q] Confirm or reject: RP-LC retention time of CCCN1C(=O)COc2ccc(-c3noc(-c4ccc(OC)cc4OC)n3)cc21 lies strictly below 800 s
[A] f

[Q] Lab note: confirm whether the reported RP-LC retention time for this compound is below 800 s, equality not counting. compound: CCN(C(=O)C1CCCN(c2ncnc3c2nc2n3CCCCC2)C1)c1cccc(C)c1 (centres undefined)
[A] f

[Q] Answer whether the compound COc1cccc(-c2nnc(Cc3nc(-c4ccncc4)no3)o2)c1 has RP-LC retention time strictly less than 800 s
[A] t

[Q] Lab note: confirm whether the reported RP-LC retention time for this compound is below 800 s, equality not counting. compound: Cc1cccc(-c2noc(Cc3nc(-c4ccc5c(c4)OCO5)cs3)n2)c1
[A] f

[Q] Decide: RP-LC retention time of O=C1/C(=C/c2ccc(Cl)c(Cl)c2)CN(C(=O)CCN2CCOCC2)C/C1=C\c1ccc(Cl)c(Cl)c1 strictly below 800 s?
[A] f

[Q] # check: RP-LC retention time < 800 s for CCCCS(=O)(=O)c1cc2c(cc1NC(=O)Cc1cccc(F)c1)n(C)c(=O)n2C
[A] f

[Q] Quick check: RP-LC retention time of O=C(CN1CCN(c2ccc(F)cc2)C1=O)NCCCN1CCCC1=O under 800 s?
[A] t

----------
# TEST_METHOD_NOTES: gradient 5% acetonitrile 3 min, to 50% in 2 min, to 85% in 15 min, held 3 min, 100 µL/min
# CONDITION: column: Zorbax Extend-C18 2.1 x 50 mm; eluents: water / acetonitrile, 0.1% formic acid
Mark true (1) only for RP-LC retention time values smaller than 800 s; exact matches and larger values are false (0).

[Q] Hello, is RP-LC retention time of the following compound strictly smaller than 800 s? CCCCN1N=C(C(=O)N2CCOCC2)S(=O)(=O)c2ccc(Cl)cc21
[A] false (0)

[Q] Report whether reported RP-LC retention time is lower than 800 s (strictly) for O=C(CN1C(=O)CCCc2cc(S(=O)(=O)N3CCCC3)ccc21)NC1CCCCCC1
[A] false (0)

[Q] Record CC1=C(C(=O)Nc2ccccc2C(=O)NCCN2CCN(C)CC2)SCCO1 : is its RP-LC retention time strictly below 800 s?
[A] true (1)

[Q] Find out if reported RP-LC retention time for CCc1ccc(S(=O)(=O)c2cnc(N3CCN(c4ccccc4F)CC3)nc2N)cc1 is less than 800 s
[A] false (0)

[Q] # strict comparison: is reported RP-LC retention time < 800 s? input = CCS(=O)(=O)N1CC(=O)N(c2ccc(Cl)cc2)C(C)(C(=O)NC2CCCCC2)C1 (centres undefined)
[A] false (0)

[Q] Please indicate whether the reported RP-LC retention time of Cc1cccc(C)c1NC(=O)Cn1nc(N2CCSCC2)c2ccccc2c1=O is strictly below 800 s.
[A] false (0)

[Q] Report whether reported RP-LC retention time is lower than 800 s (strictly) for Cc1ccc(NC(=O)CC2SC3=NCCN3C2=O)cc1 (centres undefined)
[A] true (1)

[Q] Dear reviewer, please state whether COc1ccc(NC(=O)N2CCc3c(C(=O)NC4CCN(C)CC4)cccc32)cc1 has RP-LC retention time strictly beneath 800 s.
[A] true (1)

[Q] Would you kindly verify if RP-LC retention time of CC1CN=C2C=C(N3CCN(C(=O)Nc4ccc(C(F)(F)F)cc4)CC3)N=CN21 (centres undefined) is strictly less than 800 s?
[A] true (1)

----------
Exercise: state measured RP-LC retention time for each of the compounds provided.
# TEST_METHOD_NOTES: gradient 5% acetonitrile 3 min, to 50% in 2 min, to 85% in 15 min, held 3 min, 100 µL/min
# CONDITION: column: Zorbax Extend-C18 2.1 x 50 mm; eluents: water / acetonitrile, 0.1% formic acid
Express the result in s but write the number alone.

[Q] Let me know recorded RP-LC retention time for Cn1cc(CCNC(=O)c2ccccc2C(F)(F)F)c2cccnc21 , thanks.
[A] 700

[Q] Determine from records and report RP-LC retention time for O=C(C1CCN(c2cnc(N3CCOCC3)nc2)CC1)N1CCCCCC1
[A] 684

[Q] For the compound Cc1ncsc1CN1CCC2(CC1)CC(Cc1ccc(F)cc1)CCO2 (stereo not given) , report RP-LC retention time.
[A] 556

[Q] Output RP-LC retention time of COc1ccc(OC)c2sc(N(CCN(C)C)C(=O)c3nc4ccccc4s3)nc12
[A] 715

[Q] Please indicate RP-LC retention time recorded for COC(=O)c1c(NCc2c(C)noc2C)c2ccccc2[nH]c1=O
[A] 661

[Q] Provide RP-LC retention time value for the following compound: C=CCN1C(=O)COc2ccc(-c3nc(NC(=O)CC)sc3C)cc21
[A] 846

[Q] Read the entry CN1C(=O)COc2ccc(-c3csc(NC(=O)C4CCCCC4)n3)cc21 and write its reported RP-LC retention time.
[A] 988

[Q] Could you please provide reported RP-LC retention time for COc1ccccc1CNC(=O)Cn1nc2c(N3CCC(C)CC3)nccn2c1=O ? Thanks!
[A] 745

[Q] Query RP-LC retention time for O=C(c1ccc(OCC2CCCN2C(=O)c2cccs2)cc1)N1CCCC1 (stereo not given)
[A] 815

[Q] Write down RP-LC retention time measured for item Cc1nnc(N2CCCC(C(=O)NCc3ccccc3Cl)C2)c2nn(-c3ccccc3)c(C)c12 (stereo not given)
[A] 759

[Q] Return reported RP-LC retention time. Input compound: CCCCn1c(=O)c2c(nc3n2CCN3c2ccc(OC)cc2)n(C)c1=O
[A] 939

[Q] Retrieve RP-LC retention time measured for COc1ccc(Cl)cc1S(=O)(=O)N1CCc2nn(C)c(=O)n2CC1 and print it.
[A] 712

[Q] Tell me its RP-LC retention time given CCc1nnc([C@@H]2CC(F)(F)CN2C(=O)c2noc(C)c2COC)o1 as the entry.
[A] 752

[Q] In one line, give reported RP-LC retention time of the entry Cc1cc(C)c(NC(=O)CN2C(=O)NC3(CCC(C)CC3)C2=O)c(C)c1 (stereo not given) .
[A] 570

[Q] Tell us which RP-LC retention time value is on record for CCOC(=O)c1c(C)c(CCC(=O)NCc2ccco2)n(C)c1C
[A] 792

[Q] Give RP-LC retention time for the following compound: Cc1csc(-c2ccc(N3CCN(C(=O)c4cccc(C#N)c4)CC3)nc2)n1
[A] 771

[Q] Quote RP-LC retention time reported for CN(C)c1ccc(C(=O)Nc2cnc(N3CCOCC3)nc2)cc1 please.
[A] 729

[Q] Consider the compound Cc1cc2c(c(=O)n(-c3ccccc3)c(=O)n2CC(=O)Nc2ccc(Br)cc2)n1C . State its measured RP-LC retention time.
[A] 877

[Q] Specify measured RP-LC retention time for O=C(NCc1ccnc(N2CCCCCC2)c1)Nc1ccc2c(c1)OCO2 .
[A] 622

[Q] Hello, please tell me recorded RP-LC retention time for this one: Cc1cc(S(=O)(=O)N2CCN(C3CCN(C)C3=O)CC2)ccc1Cl (stereo not given)
[A] 595
